Source: patent US20260226068A1

Overview of recorded IC50 for various compounds
tgt: IL-17A/A (Homo sapiens, UniProt Q16552)
Sequence (Q16552 24-155): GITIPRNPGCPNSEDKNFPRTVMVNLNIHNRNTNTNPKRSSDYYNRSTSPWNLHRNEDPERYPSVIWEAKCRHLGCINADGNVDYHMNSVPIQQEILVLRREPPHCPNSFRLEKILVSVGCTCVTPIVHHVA
method: IL-17A/A HEK-Blue cell assay (SEAP reporter)
measurement_context: HEK-Blue IL-17A reporter cells, IL17A/A 5 ng/mL, 20 hours, SEAP read at A630; read-out: HEK-Blue IL17AA (IC50 for IL-17A/A inhibition)
measure_name: IC50

compound: CCn1nccc1C(=O)N[C@H](c1cn2nc(C[C@H]3C[C@@H](C(F)(F)F)CNC3=O)c(C3(C)CCCOC3)nc2n1)C1CCC(F)(F)CC1 (single isomer, unassigned) [Compound 177]
experimental_result: < 100 nM
//
compound: CCn1nccc1C(=O)N[C@H](c1cn2nc(CC3C[C@@H](C(F)(F)F)CNC3=O)c(N3CC4CC(C3)O4)nc2n1)C1CCC(F)(F)CC1 (single isomer, unassigned) [Compound 82]
experimental_result: < 100 nM
//
compound: Cn1nccc1C(=O)N[C@H](c1cn2nc(C[C@H]3C[C@@H](C(F)(F)F)CNC3=O)c(C3CCC(F)(F)CC3)nc2n1)C1CCC(F)(F)CC1
experimental_result: < 100 nM
//
compound: CCn1nccc1C(=O)N[C@H](c1cn2nc(C[C@H]3C[C@@H](C(F)(F)F)CNC3=O)c(C3Cc4cncnc4C3)nc2n1)C1CCC(F)(F)CC1 (single isomer, unassigned) [Compound 402]
experimental_result: < 100 nM
//
compound: CCn1nccc1C(=O)N[C@H](c1cn2nc(C[C@H]3C[C@@H](C(F)(F)F)CNC3=O)c(C3CCOCC3)nc2n1)[C@@H]1CCCC(F)(F)C1
experimental_result: < 100 nM
//
compound: CCn1nccc1C(=O)N[C@H](c1cn2nc(C[C@H]3C[C@@H](C(F)(F)F)CNC3=O)c(CN3CCOCC3)nc2n1)[C@H]1CC[C@H](C)CC1
experimental_result: < 100 nM
//
compound: CCn1nccc1C(=O)N[C@H](c1cn2nc(C[C@H]3C[C@@H](C(F)(F)F)CNC3=O)c(N3CCN(C)CC3)nc2n1)C1CCC(F)(F)CC1
experimental_result: < 100 nM
//
compound: O=C(N[C@H](c1cn2nc(C[C@H]3C[C@@H](C(F)(F)F)CNC3=O)c(C3CCCOC3)nc2n1)[C@@H]1CCCC(F)(F)C1)c1nonc1C1CC1 (single isomer, unassigned) [Compound 210]
experimental_result: < 100 nM
//
compound: O=C(N[C@H](c1cn2nc(C[C@H]3C[C@@H](C(F)(F)F)CNC3=O)c(C3CCOCC3)nc2n1)C1CCC(F)(F)CC1)c1ccn[nH]1
experimental_result: < 100 nM
//
compound: O=C(N[C@H](c1cn2nc(CC3C[C@@H](C(F)(F)F)CNC3=O)c(N3CCOCC3)nc2n1)C1CCC(F)(F)CC1)c1nonc1C1CC1 (stereo partly drawn) [Compound 56]
experimental_result: < 100 nM
//
compound: CCn1nccc1C(=O)N[C@H](c1cn2nc(C[C@H]3C[C@@H](C(F)(F)F)CNC3=O)c(C(C)C(F)(F)F)nc2n1)C1CCC(F)(F)CC1 (single isomer, unassigned) [Compound 174]
experimental_result: < 100 nM
//
compound: O=C(N[C@H](c1cn2nc(C[C@H]3C[C@@H](C(F)(F)F)CNC3=O)cnc2n1)C1CCC(F)(F)CC1)c1nonc1C1CC1
experimental_result: < 100 nM
//
compound: CC(C)n1nccc1C(=O)N[C@H](c1cn2nc(CC3C[C@@H](C(F)(F)F)CNC3=O)c(N3CCOCC3)nc2n1)[C@H]1CC[C@H](C)CC1 (single isomer, unassigned) [Compound 100]
experimental_result: < 100 nM
//
compound: CCn1nccc1C(=O)N[C@H](c1cn2nc(CC3C[C@@H](C(F)(F)F)CNC3=O)cnc2n1)C1CCC(F)(F)CC1 (single isomer, unassigned) [Compound 4]
experimental_result: < 100 nM
//
compound: CCn1nccc1C(=O)N[C@H](c1cn2nc(C[C@H]3C[C@@H](C(F)(F)F)CNC3=O)c(CN3CCN(C)CC3)nc2n1)C1CCC(F)(F)CC1
experimental_result: 100 to 1000 nM
//
compound: CCn1nccc1C(=O)N[C@H](c1cn2nc(C[C@H]3C[C@@H](C(F)(F)F)CNC3=O)c([C@H]3CCC(C)(C)OC3)nc2n1)C1CCC(F)(F)CC1 (single isomer, unassigned)
experimental_result: < 100 nM
//
compound: CCn1nccc1C(=O)N[C@H](c1cn2nc(C[C@H]3C[C@@H](C(F)(F)F)CNC3=O)c(N[C@H]3CC[C@@H](OC)CC3)nc2n1)C1CCC(F)(F)CC1
experimental_result: < 100 nM
//
compound: CCn1nccc1C(=O)N[C@H](c1cn2nc(C[C@H]3C[C@@H](C(F)(F)F)CNC3=O)c(C3CCNCC3)nc2n1)C1CCC(F)(F)CC1
experimental_result: 100 to 1000 nM
//
compound: CCn1nccc1C(=O)N[C@H](c1cn2nc(C[C@H]3C[C@@H](C(F)(F)F)CNC3=O)c(C3CCN(C)CC3)nc2n1)C1CCC(F)(F)CC1
experimental_result: 100 to 1000 nM
//
compound: CCn1nccc1C(=O)N[C@H](c1cn2nc(C[C@H]3C[C@@H](C(F)(F)F)CNC3=O)c(CN3C(C)CC3C)nc2n1)C1CCC(F)(F)CC1 (stereo partly drawn)
experimental_result: < 100 nM
//
compound: CCc1nonc1C(=O)N[C@H](c1cn2nc(CC3C[C@@H](C(F)(F)F)CNC3=O)cnc2n1)C1CCC(F)(F)CC1 (stereo partly drawn)
experimental_result: 100 to 1000 nM

----------
tgt: IL-17A/F (Homo sapiens, UniProt Q16552+Q96PD4)
method: IL-17A/F HEK-Blue cell assay (SEAP reporter)
measurement_context: HEK-Blue IL-17A reporter cells, IL17A/F 5 ng/mL, 20 hours, SEAP read at A630; read-out: HEK-Blue IL17AF (IC50 for IL-17A/F inhibition)
measure_name: IC50

compound: CCn1nccc1C(=O)N[C@H](c1cn2nc(CC3C[C@@H](C(F)(F)F)CNC3=O)c(N3CC4CC(C3)O4)nc2n1)[C@@H]1CCCC(F)(F)C1 (single isomer, unassigned) [Compound 96]
experimental_result: 0.1 to 1 µM
--
compound: CCn1ncnc1C(=O)N[C@H](c1cn2nc(C[C@H]3C[C@@H](C(F)(F)F)CNC3=O)c(C3CCS(=O)(=O)CC3)nc2n1)C1CCC(F)(F)CC1
experimental_result: > 1 µM
--
compound: CCn1nccc1C(=O)N[C@H](c1cn2nc(C[C@H]3C[C@@H](C(F)(F)F)CNC3=O)c(CC3COCCO3)nc2n1)C1CCC(F)(F)CC1 (some centres unmarked)
experimental_result: > 1 µM
--
compound: CCn1nccc1C(=O)N[C@H](c1cn2nc(CC3C[C@@H](C(F)(F)F)CNC3=O)c(N3CCOCC3)nc2n1)C1CCC(F)(F)CC1 (single isomer, unassigned) [Compound 18]
experimental_result: > 1 µM
--
compound: CCn1nccc1C(=O)N[C@H](c1cn2nc(C[C@H]3C[C@@H](C(F)(F)F)CNC3=O)cnc2n1)[C@@H]1CCCC(F)(F)C1 (single isomer, unassigned)
experimental_result: > 1 µM
--
compound: CCn1ncnc1C(=O)N[C@H](c1cn2nc(C[C@@H]3C[C@H](C)CNC3=O)c(C3CCOCC3)nc2n1)C1CCC(F)(F)CC1
experimental_result: > 1 µM
--
compound: CCn1nncc1C(=O)N[C@H](c1cn2nc(C[C@H]3C[C@@H](C(F)(F)F)CNC3=O)c(C3CCOCC3)nc2n1)C1CCC(F)(F)CC1
experimental_result: > 1 µM
--
compound: CCn1nccc1C(=O)N[C@H](c1cn2nc(C[C@H]3C[C@@H](C(F)(F)F)CNC3=O)c(C(C)(C)C3CCOCC3)nc2n1)C1CCC(F)(F)CC1
experimental_result: > 1 µM
--
compound: O=C(N[C@H](c1cn2nc(CC3C[C@H](C(F)(F)F)CNC3=O)cnc2n1)C1CCC(F)(F)CC1)c1nonc1C1CC1 (some centres unmarked)
experimental_result: > 1 µM
--
compound: CCn1nccc1C(=O)N[C@H](c1cn2nc(C[C@H]3C[C@@H](C(F)(F)F)CNC3=O)c(CN3CC4CC(C3)C4(F)F)nc2n1)C1CCC(F)(F)CC1
experimental_result: 0.1 to 1 µM
--
compound: CCn1nccc1C(=O)N[C@H](c1cn2nc(C[C@H]3C[C@@H](C(F)(F)F)CNC3=O)c(N3CCC4(CCOCC4)C3)nc2n1)C1CCC(F)(F)CC1
experimental_result: 0.1 to 1 µM
